The values you see were collected from patent US12077503B2.

Tested on: Galium (catchweed bedstraw, Galium aparine)
Assay: Test A postemergence
Assay type: in vivo
Conditions: 500 g ai/ha, postemergence; visual injury, 0 to 100 scale (0 no effect, 100 complete control), approx. 10 d
Decision: Plant response rating, Galium compared against 60; not below it gives y, below it gives n.

Ask: Please indicate if the recorded Plant response rating, Galium for O=C1NCC(c2ccc(I)cc2)C1C(=O)Nc1ccccc1Cl (racemic) meets or exceeds 60.
Reply: n

Ask: Plant response rating, Galium >= 60 for Cc1ccc(C2CNC(=O)C2C(=O)Nc2ccc(F)cc2F)cc1C(F)(F)F (racemic) ?
Reply: n

Ask: Please indicate if the recorded Plant response rating, Galium for CN1CC(c2ccc(C(C)(F)F)cc2)C(C(=O)Nc2ccc(F)cc2F)C1=O (stereo not drawn) meets or exceeds 60.
Reply: y

Ask: # bool: Plant response rating, Galium of O=C1NCC(c2ccc(I)cc2)C1C(=O)Nc1cccc(F)c1 (racemic) >= 60
Reply: n

Ask: Kindly determine if Plant response rating, Galium recorded for Cc1ccc([C@H]2CN(C)C(=O)[C@@H]2C(=O)Nc2ccccc2[S+](C)[O-])cc1Cl (stereo partly drawn) is above or exactly 60.
Reply: y

Ask: Could you verify whether the entry Cc1cccc(C2CN(C)C(=O)C2C(=O)Nc2ccccc2F)c1 (stereo not drawn) shows Plant response rating, Galium of no less than 60?
Reply: n
